Target: MAST1, Q9Y2H9
Sequence (Q9Y2H9 962-1065): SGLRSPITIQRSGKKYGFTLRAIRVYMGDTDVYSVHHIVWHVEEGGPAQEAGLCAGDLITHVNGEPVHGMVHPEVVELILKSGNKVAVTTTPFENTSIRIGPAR
Experiment: holdup assay
Set-up: key: below the threshold = too weak to quantify, mostly under pKd 3.1 to 4
Details: plain residues with an end cap or a label only (N-terminal biotin on a linker: ado-ado)
Consider the following binders and their measured pKd readings.

{"columns": ["Binder", "pKd"],
 "data": [
  ["GEDRSPPTAL [MKNK1, Q9BUB5]", 4.1],
  ["SLNANEVEWF [RNF130, Q86XS8]", 3.96]
]}
